# Tested on: TRAMP-C2 cell line
# Assay type: cell-based
# recorded.conditions: dose-dependent plot, FIG. 6a; read-out: LC50 towards TRAMP-C2 cells
Non-standard residues stand in square brackets, D forms with d. Residues, ends and D or L forms follow the SMILES beside them. *: point of attachment. Lauroyl = CCCCCCCCCCCC(=O)*; 12Ado = NCCCCCCCCCCCC(=O)O
assay.readout: CC50

Give the measured CC50 of CCCCCCCCCCCC(=O)N[C@@H](CCCCN)C(=O)NCCCCCCCCCCCC(=O)N[C@@H](CCCCN)C(=O)N[C@@H](CCCCN)C(=O)NCCCCCCCCCCCC(=O)N[C@@H](CCCCN)C(=O)N[C@@H](CCCCN)C(=O)NCCCCCCCCCCCC(=O)N[C@@H](CCCCN)C(N)=O (Lauroyl-K[12Ado]KK[12Ado]KK[12Ado]K-NH2) . 11 µM

* * *

# System: N-417 cell line
# experiment: XTT cell viability assay, N-417 cells
# Format: cell-based
# recorded.conditions: human, 24 h
# Protocol: Variant small cell lung cancer cells (N-417, SCLC); […] Thereafter, a series of increasing concentrations of the polymers were added. […] The optical density of the cells was measured at 450 nm by ELISA plate reader after 2-4 hours XTT incubation. Cell viability was determined relative to a control having no polymer added thereto. […]
Non-standard residues stand in square brackets, D forms with d. Residues, ends and D or L forms follow the SMILES beside them. 12Ado = NCCCCCCCCCCCC(=O)O
Consider the following compounds and their measured CC50 readings.

Worked set:
NCCCCCCCCCCCC(=O)N[C@@H](CCCCN)C(=O)NCCCCCCCCCCCC(=O)N[C@@H](CCCCN)C(=O)N[C@@H](CCCCN)C(=O)NCCCCCCCCCCCC(=O)N[C@@H](CCCCN)C(N)=O [NC12(KNC12K)2NH2] (H-[12Ado]K[12Ado]KK[12Ado]K-NH2): > 16 µM
CCCCCCCCCCCC(=O)N[C@@H](CCCCN)C(=O)N[C@@H](CCCCN)C(=O)NCCCCCCCCCCCC(=O)N[C@@H](CCCCN)C(N)=O [C12KKNC12KNH2] (HELM PEPTIDE1{[CCCCCCCCCCCC(=O)[*:2]].K.K.[O=C(CCCCCCCCCCCN[*:1])[*:2]].K.[am]}$$$$V2.0): > 50 µM
CCCCCCCC(=O)N[C@@H](CCCCN)C(=O)N[C@@H](CCCCN)C(=O)NCCCCCCCCCCCC(=O)N[C@@H](CCCCN)C(N)=O [C8KKNC12KNH2] (HELM PEPTIDE1{[CCCCCCCC(=O)[*:2]].K.K.[O=C(CCCCCCCCCCCN[*:1])[*:2]].K.[am]}$$$$V2.0): > 16 µM

Give the measured CC50 of NCCCC[C@H](NC(=O)CCCCCCCCCCCNC(=O)[C@H](CCCCN)NC(=O)[C@@H](N)CCCCN)C(N)=O [KKNC12KNH2] (HELM PEPTIDE1{K.K.[O=C(CCCCCCCCCCCN[*:1])[*:2]].K.[am]}$$$$V2.0) . > 16 µM

* * *

# System: TRAMP-C2 cell line
# Assay type: cell-based
# recorded.conditions: 24 hours incubation, XTT; read-out: Cancer LC50 Mouse prostate cancer TRAMP-C2
Non-standard residues stand in square brackets, D forms with d. Residues, ends and D or L forms follow the SMILES beside them. *: point of attachment. 12Ado = NCCCCCCCCCCCC(=O)O; Octanoyl = CCCCCCCC(=O)*
assay.readout: CC50

CCCCCCCC(=O)N[C@@H](CCCCN)C(=O)N[C@@H](CCCCN)C(=O)NCCCCCCCCCCCC(=O)N[C@@H](CCCCN)C(=O)N[C@@H](CCCCN)C(=O)NCCCCCCCCCCCC(=O)N[C@@H](CCCCN)C(N)=O [C8K(KNC12K)2NH2] (Octanoyl-KK[12Ado]KK[12Ado]K-NH2): > 16 µM
NCCCC[C@H](NC(=O)CCCCCCCCCCCNC(=O)[C@H](CCCCN)NC(=O)[C@H](CCCCN)NC(=O)CCCCCCCCCCCNC(=O)[C@H](CCCCN)NC(=O)[C@H](CCCCN)NC(=O)CCCCCCCCCCCNC(=O)[C@H](CCCCN)NC(=O)[C@@H](N)CCCCN)C(N)=O [K(KNC12K)3NH2] (H-KK[12Ado]KK[12Ado]KK[12Ado]K-NH2): > 16 µM

// next entry
Give the measured CC50 of NCCCC[C@H](NC(=O)CCCCCCCCCCCNC(=O)[C@H](CCCCN)NC(=O)[C@H](CCCCN)NC(=O)CCCCCCCCCCCNC(=O)[C@H](CCCCN)NC(=O)[C@@H](N)CCCCN)C(N)=O [K(KNC12K)2NH2] (HELM PEPTIDE1{K.K.[O=C(CCCCCCCCCCCN[*:1])[*:2]].K.K.[O=C(CCCCCCCCCCCN[*:1])[*:2]].K.[am]}$$$$V2.0) . > 16 µM

* * *

Consider the following compounds and their measured CC50 readings.
# System: TRAMP-C2 cell line
# Format: cell-based
# recorded.conditions: 24 hours incubation, XTT; read-out: Cancer LC50 Mouse prostate cancer TRAMP-C2
Non-standard residues stand in square brackets, D forms with d. Residues, ends and D or L forms follow the SMILES beside them. *: point of attachment. Lauroyl = CCCCCCCCCCCC(=O)*; 12Ado = NCCCCCCCCCCCC(=O)O; Octanoyl = CCCCCCCC(=O)*

CCCCCCCC(=O)N[C@@H](CCCCN)C(=O)N[C@@H](CCCCN)C(=O)NCCCCCCCCCCCC(=O)N[C@@H](CCCCN)C(=O)N[C@@H](CCCCN)C(=O)NCCCCCCCCCCCC(=O)N[C@@H](CCCCN)C(=O)N[C@@H](CCCCN)C(=O)NCCCCCCCCCCCC(=O)N[C@@H](CCCCN)C(N)=O [C8K(KNC12K)3NH2] (Octanoyl-KK[12Ado]KK[12Ado]KK[12Ado]K-NH2): 16 µM
CCCCCCCCCCCC(=O)N[C@@H](CCCCN)C(=O)N[C@@H](CCCCN)C(=O)NCCCCCCCCCCCC(=O)N[C@@H](CCCCN)C(=O)N[C@@H](CCCCN)C(=O)NCCCCCCCCCCCC(=O)N[C@@H](CCCCN)C(N)=O [C12K(KNC12K)2NH2] (Lauroyl-KK[12Ado]KK[12Ado]K-NH2): > 16 µM

// next entry
Give the measured CC50 of CCCCCCCC(=O)N[C@@H](CCCCN)C(=O)NCCCCCCCCCCCC(=O)N[C@@H](CCCCN)C(=O)N[C@@H](CCCCN)C(=O)NCCCCCCCCCCCC(=O)N[C@@H](CCCCN)C(N)=O [C8(KNC12K)2NH2] (Octanoyl-K[12Ado]KK[12Ado]K-NH2) . > 8 µM

* * *

# Test system: MCF-7 cell line
# Format: cell-based
# recorded.conditions: dose-dependent plots, FIGS. 4a-b; read-out: LC50 against MCF-7 cells
Non-standard residues stand in square brackets, D forms with d. Residues, ends and D or L forms follow the SMILES beside them. *: point of attachment. 12Ado = NCCCCCCCCCCCC(=O)O; Octanoyl = CCCCCCCC(=O)*
assay.readout: CC50 (µM)
The reply should be a number in µM, with the unit left off.

Give the measured CC50 of CCCCCCCC(=O)N[C@@H](CCCCN)C(=O)N[C@@H](CCCCN)C(=O)NCCCCCCCCCCCC(=O)N[C@@H](CCCCN)C(=O)N[C@@H](CCCCN)C(=O)NCCCCCCCCCCCC(=O)N[C@@H](CCCCN)C(=O)N[C@@H](CCCCN)C(=O)NCCCCCCCCCCCC(=O)N[C@@H](CCCCN)C(N)=O [C8K(KNC12K)3NH2] (Octanoyl-KK[12Ado]KK[12Ado]KK[12Ado]K-NH2) . 5.5

* * *

Consider the following molecules and their measured CC50 readings.
# Test system: MCF-7 cell line
# Format: cell-based
# recorded.conditions: human, 24 h
Non-standard residues stand in square brackets, D forms with d. Residues, ends and D or L forms follow the SMILES beside them. *: point of attachment. Lauroyl = CCCCCCCCCCCC(=O)*; 12Ado = NCCCCCCCCCCCC(=O)O

Worked set:
CCCCCCCCCCCC(=O)N[C@@H](CCCCN)C(=O)NCCCCCCCCCCCC(=O)N[C@@H](CCCCN)C(=O)N[C@@H](CCCCN)C(=O)NCCCCCCCCCCCC(=O)N[C@@H](CCCCN)C(N)=O [C12(KNC12K)2NH2] (Lauroyl-K[12Ado]KK[12Ado]K-NH2): 11 µM
CCCCCCCCCCCC(=O)N[C@@H](CCCCN)C(=O)N[C@@H](CCCCN)C(=O)NCCCCCCCCCCCC(=O)N[C@@H](CCCCN)C(N)=O [C12KKNC12KNH2] (HELM PEPTIDE1{[CCCCCCCCCCCC(=O)[*:2]].K.K.[O=C(CCCCCCCCCCCN[*:1])[*:2]].K.[am]}$$$$V2.0): > 16 µM
CCCCCCCC(=O)N[C@@H](CCCCN)C(=O)N[C@@H](CCCCN)C(=O)NCCCCCCCCCCCC(=O)N[C@@H](CCCCN)C(N)=O [C8KKNC12KNH2] (HELM PEPTIDE1{[CCCCCCCC(=O)[*:2]].K.K.[O=C(CCCCCCCCCCCN[*:1])[*:2]].K.[am]}$$$$V2.0): > 16 µM
NCCCC[C@H](NC(=O)CCCCCCCCCCCNC(=O)[C@H](CCCCN)NC(=O)[C@@H](N)CCCCN)C(N)=O [KKNC12KNH2] (HELM PEPTIDE1{K.K.[O=C(CCCCCCCCCCCN[*:1])[*:2]].K.[am]}$$$$V2.0): > 16 µM

// next entry
Short answer please: CC50, MCF-7 cell line, entry NCCCCCCCCCCCC(=O)N[C@@H](CCCCN)C(=O)NCCCCCCCCCCCC(=O)N[C@@H](CCCCN)C(=O)N[C@@H](CCCCN)C(=O)NCCCCCCCCCCCC(=O)N[C@@H](CCCCN)C(N)=O [NC12(KNC12K)2NH2] (H-[12Ado]K[12Ado]KK[12Ado]K-NH2) > 16 µM
